Molecular target: T1, ZFP SBS#1041 (synthetic)
T1 chain: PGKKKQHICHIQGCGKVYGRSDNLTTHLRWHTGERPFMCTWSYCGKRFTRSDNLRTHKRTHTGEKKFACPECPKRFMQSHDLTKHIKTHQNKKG
Assay: EMSA
Settings: tags: MBP fusion
Readout Type: Kd (nM)
Just the number in nM, nothing appended.

Per the records, this binder ( TCATAGTAG (dsDNA) DNA 1: TCATAGTAG DNA 2: CTACTATGA ) has Kd equal to 2.06
